The reported measurements were obtained from PubChem BioAssay (NCI).

Test system: T-47D breast
Experiment: NCI tumour cell line growth inhibition, 48 h
Overview of reported TGI across a group of molecules:

molecule	TGI
O=c1[nH]c(=O)n(C2CC(O)C(CO)O2)c2nc3ccc4ccccc4c3nc12 (configuration not stated)	> 100 µM
CO[C@H](c1ccccc1)[C@H](O)[C@](O)(c1ccccc1)P(=O)(OC)OC	> 100 µM
CC1(C)C2CCC13C(=O)C1OC3(C2)C2C(=O)c3c(O)ccc(O)c3C(=O)C12 (configuration not stated)	> 64.8 µM
O=C(O)CCSc1nnc(COc2ccc(Cl)cc2)n1-c1ccccc1	> 100 µM
Nc1c(Cl)c([N+](=O)[O-])cc2c1OCCCCO2	> 100 µM
COc1ccccc1N1C(=O)/C(=C\c2cc(OC)c(OC)c(OC)c2)S(=O)(=O)C1c1ccccc1 (configuration not stated)	> 100 µM
CCOC(=O)c1c(Cl)c2c(n1Cc1cc(OC)cc(OC)c1)-c1oncc1CCC2	> 100 µM
CN1CCN(C(=S)N(C)C(=O)c2cccs2)CC1	> 100 µM
C[C@]12CCC(=O)C=C1CC[C@@H]1[C@@H]2CC[C@]2(C)C(=O)/C(=C/c3cccc(OCCN4CCOCC4)c3)C[C@@H]12	> 100 µM
CC(C)N(c1cc2c(cc1F)c(=O)c(C(=O)O)cn2-c1ccc(N2CCN(C)CC2)cn1)C(C)C	> 100 µM
ON(CCc1ccccn1)Cc1ccccc1	> 100 µM
COc1ccc(N2C(=O)/C(=C\c3cc(OC)c(OC)c(OC)c3)S(=O)(=O)C2c2ccccc2)cc1 (configuration not stated)	> 100 µM

---

System: M14 melanoma
Test: NCI tumour cell line growth inhibition, 48 h; in the data active = GI50 below about 0.43 µM; inactive = the rest
Classes used: active, inactive

molecule	class-label
Clc1ccc(CO/N=C(\Cn2ccnc2)c2ccc(Cl)cc2Cl)c(Cl)c1	inactive
Cc1cc(C)nc(SC2=C(Nc3cccc(Cl)c3)C(=O)N(Cc3ccccc3)C2=O)n1	inactive
CC1(C)C2CCC13C(=O)C1OC3(C2)C2C(=O)c3c(O)ccc(O)c3C(=O)C12 (centres undefined)	inactive
COC(=O)[C@@H](C)C[C@H](Cc1ccccc1)NC(=O)c1csc([C@@H](C[C@H](C(C)C)N(C)C(=O)[C@@H](NC(=O)[C@H]2CCCCN2C)C(C)C)OC(C)=O)n1	active

---

System: SK-OV-3 ovarian
Test: NCI tumour cell line growth inhibition, 48 h
Overview of reported TGI across a group of molecules:

entry-smiles	TGI
CC/C(=C(\CC)c1ccc(OCCN(CC)CC)cc1)c1ccc(OCCN(CC)CC)cc1	12 µM
O=C(C=Nc1ccccc1C(=O)[O-])c1cccs1.O=C(C=Nc1ccccc1C(=O)[O-])c1cccs1.[Cu+2]	> 100 µM
Cc1ccc(S(=O)(=O)N/N=C(\C(=O)Nc2cccc([N+](=O)[O-])c2)c2nc3ccc([N+](=O)[O-])cc3[nH]c2=O)cc1	> 100 µM

---

System: HT29 colon
Assay: NCI tumour cell line growth inhibition, 48 h

molecule	TGI
CSc1sc(=S)sc1SC	> 100 µM
O=C(/C=C\c1ccccc1-c1ccccc1)c1ccccc1	> 100 µM
CC(C)(O)[C@H]1[C@@H]2OC(=O)[C@H]1[C@]1(O)C[C@H]3OC34C(=O)O[C@H]2[C@@]41C (stereo partly drawn) (tested in a mixture with another compound)	> 100 µM
Cc1ccc2sc3c(NCCCNCCO)nc4ccccc4c3c(=O)c2c1	3.36 µM
COc1ccc(CCN(C)C(=O)CC(C#N)(c2ccccc2)c2ccc(OC)c(OC)c2)cc1OC (stereo not drawn)	> 100 µM
COc1ccccc1NC(=O)C1=C(C)NC(C)=C(C(=O)Nc2ccccc2OC)C1c1ccccc1OC	> 100 µM
C#C[C@]1(O)CC[C@H]2[C@@H]3CCC4=C/C(=N\OCCN5CCCC5)CC[C@]4(C)[C@H]3CC[C@@]21C	29.7 µM
CCC[CH2][Sn]([CH2]CCC)([S]C1=NCCS1)[S]C1=NCCS1	2.58 µM
O=C(O)CCSc1nnc(COc2ccc(Cl)cc2)n1-c1ccccc1	> 100 µM
C#C[C@@]1(O)[C@@H](CO)O[C@@H](n2cc(F)c3c(N)ncnc32)[C@@H]1O	> 100 µM
O=C(CC1(O)C(=O)Nc2c(Cl)cc(Cl)cc21)c1ccc2ccccc2c1 (stereo not drawn)	18.5 µM
O=C(O)CCC1CCC(c2cc(F)ccc2F)(S(=O)(=O)c2ccc(Cl)cc2)CC1 (stereo not drawn)	> 100 µM
COc1cc(C2S/C(=C/c3ccccc3)C(=O)N2c2ccc([N+](=O)[O-])cc2)cc(OC)c1OC (stereo not drawn)	> 100 µM
